The reported numbers originate from patent EP4682166A1.

Task for the reader: assign each of the following binders its reported OD450.
- TARGET_OR_SYSTEM: T1, human NMI (N-myc Interacting protein), recombinant protein (human, UniProt Q13287 1-307, limits assumed)
- T1 construct: Gene ID: 9111; also called hNMI; antigen
- T1 sequence (looked up): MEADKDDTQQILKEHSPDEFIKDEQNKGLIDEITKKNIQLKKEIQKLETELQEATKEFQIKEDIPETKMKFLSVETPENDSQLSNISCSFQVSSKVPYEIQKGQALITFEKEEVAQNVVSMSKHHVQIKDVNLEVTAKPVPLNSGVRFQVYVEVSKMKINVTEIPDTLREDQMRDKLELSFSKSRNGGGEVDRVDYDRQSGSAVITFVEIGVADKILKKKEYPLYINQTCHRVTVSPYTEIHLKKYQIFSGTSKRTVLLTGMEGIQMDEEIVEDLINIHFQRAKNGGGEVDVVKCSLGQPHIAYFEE
- EXPERIMENT: sandwich ELISA; detection 94C4-1-biotin 0.5µg/mL; hNMI 97.656 pg/mL
Quote the value and follow it with the unit of measurement.

Please review the entries below; each comes with its answer.
[[record]]
binder = "monoclonal antibody 98G10 (antibody, V domains shown, Rabbit monoclonal antibody) VH: QEQLEESGGDLVKPEGSLTLTCTASGFSFSASYWICWVRQAPGKGLEWIACIYGGSSGSAYYASWAKGRFTISKTSSTTVTLQMTSLTAADTATYFCARAGYYNYGSAGDIYPSSFKLWGPGTLVTVSS VL: DIVMTQTPASVEAAVGGTVTINCQASQSISTALAWYQQKPGQPPKLLIYTASKVASGVPSRFSGSGSGTQFTLTISDLECADAATYYCQNYYYSSSSITFGGGTEVVVK"
result = "0.126 OD450"

[[record]]
binder = "monoclonal antibody 39B4 (antibody, V domains shown, Rabbit monoclonal antibody; also called 39B4-1) VH: QEQLVESGGGLVQPEGSLTLTCTASGFSFSSSYWICWVRQAPGKGLEWIACIYAGTSGSTYYASWAKGRFTISKTSSTTVDLQMNSLTAADTATYFCARAGYYTYGAGVYIYPSSFKLWGPGTLVTVSS VL: DVVMTQTPASVEAAVGGTVTIKCQASESIGNALAWYQQKPGQPPKLLIYSASNLASGVPSRFSGSGSGTQFTLTISDLECADAATYYCQSYYYSSSSITFGGGTEVVVK"
result = "0.143 OD450"


# map each binder to its OD450
1. monoclonal antibody B-8 (antibody, V domains shown, Rabbit monoclonal antibody; also called B8-1) VH: QSLEESGGDLVKPGASLTLTCTASGFSFSSSYYMCWVRQAPGKGLEWIACIYAGSSGSTYYASWAKGRFTISKTSSTTVTLQMTSLTAADTATYFCAREYSYDDYGDFWGFNLWGPGTLVTVSS VL: ALVMTQTPSSVSAAVGGTVTINCQASQNIYTNLAWYQQKPGQPPKLLIYGASNLESGVPSRFKGSGSGTEYTLTISDLECDDAATYYCQSSLYSRIADRANAFGGGTEVVVK
2. monoclonal antibody 240B10-1 (antibody, V domains shown, Rabbit monoclonal antibody) VH: QSLEESGGRLVTPGGSLTLTCTVSGIDLSSYTMGWVRQAPGKGLEYIGIISGGGRTYYASWAKGRFTISKTSSTTVDLKVTSLTTEDTATYFCARIYTLWGQGTLVTVSS VL: QVLTQTLASVSAAVGGTVTINCQSSQSVYNNDYLAWFQQKSGQPPKQLIHSASKLASGVPSRFKGSGSGTQFTLTINDVQCDDAATYYCLGGYDCYSADCNVFGGGTEVVVK

A:
0.113 OD450
0.146 OD450
